Target: Cytochrome P450 3A4 (Homo sapiens)
Assay: Cytochrome P450 Family 3 Subfamily A Member 4 (CYP3A4) small molecule antagonists: luciferase reporter qHTS assay (AID 1671201); note: nearly all actives have a fitted effect of over 50% in size
Settings: P450-Glo CYP3A4 enzyme, luciferin luminescence, 1 h; series mostly up to 115 µM
Results filed as inconclusive are left out. Active and inactive are the calls of the source. Calls come from the whole dose curve; as a rule, active = well fitted inhibition curve with a large enough effect in the repeat runs; inconclusive = weak or mixed curves; inactive = no such curve, though single readings can be large or run the other way.
Outcome codes: y (active), n (inactive)

Molecule: CCOC(=O)Cc1cccc2ccccc12
Test System: Cytochrome P450 3A4 (Homo sapiens)
Discrete Label: n
//
Molecule: CCCCCCc1ccc(-c2ccc(C#N)cc2)cc1
Test System: Cytochrome P450 3A4 (Homo sapiens)
Discrete Label: n
//
Molecule: c1ccc(-c2ccccn2)nc1
Test System: Cytochrome P450 3A4 (Homo sapiens)
Discrete Label: n
//
Molecule: CC[N+]1(CC)CCC(=C(c2ccccc2)c2ccccc2)C1C (centres undefined)
Test System: Cytochrome P450 3A4 (Homo sapiens)
Discrete Label: n
//
Molecule: O=C1OC(CN2CCOCC2)CN1/N=C/c1ccc([N+](=O)[O-])o1 (centres undefined)
Test System: Cytochrome P450 3A4 (Homo sapiens)
Discrete Label: n
//
Molecule: CC(=O)c1ccc2c(c1)N(CCCN(C)C)c1ccccc1S2
Test System: Cytochrome P450 3A4 (Homo sapiens)
Discrete Label: n
//
Molecule: O=S(c1cc(Cl)cc(Cl)c1O)c1cc(Cl)cc(Cl)c1O
Test System: Cytochrome P450 3A4 (Homo sapiens)
Discrete Label: n
//
Molecule: CN1CCN(C(c2ccccc2)c2ccccc2)CC1
Test System: Cytochrome P450 3A4 (Homo sapiens)
Discrete Label: n
//
Molecule: ClCCOCCOCCCl
Test System: Cytochrome P450 3A4 (Homo sapiens)
Discrete Label: n
//
Molecule: OC[C@H]1O[C@@H](OCCc2ccc(O)cc2)[C@H](O)[C@@H](O)[C@@H]1O
Test System: Cytochrome P450 3A4 (Homo sapiens)
Discrete Label: n
//
Molecule: CN(C)c1ccc(CCO)cc1
Test System: Cytochrome P450 3A4 (Homo sapiens)
Discrete Label: n
//
Molecule: COC(C)OC
Test System: Cytochrome P450 3A4 (Homo sapiens)
Discrete Label: n
//
Molecule: CC/C=C\CCOC(=O)CC
Test System: Cytochrome P450 3A4 (Homo sapiens)
Discrete Label: n
//
Molecule: CCCCC(CC)COC(=O)COc1ccc(Cl)cc1Cl (centres undefined)
Test System: Cytochrome P450 3A4 (Homo sapiens)
Discrete Label: y
//
Molecule: CCCCCCCCCCCCN1CCCCCC1=O
Test System: Cytochrome P450 3A4 (Homo sapiens)
Discrete Label: n
//
Molecule: C=C(C)C(=O)OCC
Test System: Cytochrome P450 3A4 (Homo sapiens)
Discrete Label: n
//
Molecule: CCOC(=O)C(O)c1ccccc1 (centres undefined)
Test System: Cytochrome P450 3A4 (Homo sapiens)
Discrete Label: n
//
Molecule: CN(C)c1ccc(C(c2ccccc2)c2ccc(N(C)C)cc2)cc1
Test System: Cytochrome P450 3A4 (Homo sapiens)
Discrete Label: y
//
Molecule: CCCCC
Test System: Cytochrome P450 3A4 (Homo sapiens)
Discrete Label: n
//
Molecule: CC(CC=O)c1ccccc1 (centres undefined)
Test System: Cytochrome P450 3A4 (Homo sapiens)
Discrete Label: y
//
Molecule: COc1ccc(S(=O)(=O)N2C(=O)[C@@](c3ccccc3OC)(N3C[C@H](O)C[C@H]3C(=O)N(C)C)c3cc(Cl)ccc32)c(OC)c1
Test System: Cytochrome P450 3A4 (Homo sapiens)
Discrete Label: y
//
Molecule: C=C(C)C(=O)OCCOCC
Test System: Cytochrome P450 3A4 (Homo sapiens)
Discrete Label: n
//
Molecule: OC(CN1CCC(Cc2ccc(F)cc2)CC1)c1ccc(Cl)cc1 (centres undefined)
Test System: Cytochrome P450 3A4 (Homo sapiens)
Discrete Label: n
//
Molecule: CN(Cc1ccc(C(C)(C)C)cc1)Cc1cccc2ccccc12
Test System: Cytochrome P450 3A4 (Homo sapiens)
Discrete Label: n
//
Molecule: CCCCCCCCCCCCCCCCCCOS(=O)(=O)O
Test System: Cytochrome P450 3A4 (Homo sapiens)
Discrete Label: n
//
Molecule: CC(C)(O)c1ccc(CNC(=O)c2cccnc2Oc2ccc(F)cc2)cc1
Test System: Cytochrome P450 3A4 (Homo sapiens)
Discrete Label: y
//
Molecule: CCC(CC)Nc1ccc(C)c(C)c1
Test System: Cytochrome P450 3A4 (Homo sapiens)
Discrete Label: n
//
Molecule: CCCCCC[C@@H](O)C/C=C\CCCCCCCC(=O)OC
Test System: Cytochrome P450 3A4 (Homo sapiens)
Discrete Label: n
//
Molecule: CCOC(=O)COC(=O)c1cc(Oc2ccc(C(F)(F)F)cc2Cl)ccc1[N+](=O)[O-]
Test System: Cytochrome P450 3A4 (Homo sapiens)
Discrete Label: n
//
Molecule: COC(=O)c1ccc(I)cc1S(=O)(=O)NC(=O)Nc1nc(C)nc(OC)n1
Test System: Cytochrome P450 3A4 (Homo sapiens)
Discrete Label: n
//
Molecule: C1CCCNCCC1
Test System: Cytochrome P450 3A4 (Homo sapiens)
Discrete Label: n
//
Molecule: Nc1ccc(N)c2c1C(=O)c1ccccc1C2=O
Test System: Cytochrome P450 3A4 (Homo sapiens)
Discrete Label: y
//
Molecule: CCN(CC)CCNC(=O)c1cc(Br)c(N)cc1OC
Test System: Cytochrome P450 3A4 (Homo sapiens)
Discrete Label: n
//
Molecule: Nc1ccc([N+](=O)[O-])c(C(F)(F)F)c1
Test System: Cytochrome P450 3A4 (Homo sapiens)
Discrete Label: n
//
Molecule: CN(C)CCN(Cc1ccc(Cl)cc1)c1ccccn1
Test System: Cytochrome P450 3A4 (Homo sapiens)
Discrete Label: n
//
Molecule: CC1=CC[C@H](C(C)C)C=C1
Test System: Cytochrome P450 3A4 (Homo sapiens)
Discrete Label: y
//
Molecule: CC(C)(COC(=O)c1ccccc1)COC(=O)c1ccccc1
Test System: Cytochrome P450 3A4 (Homo sapiens)
Discrete Label: n
//
Molecule: CCOC(=O)C(F)(F)F
Test System: Cytochrome P450 3A4 (Homo sapiens)
Discrete Label: n
//
Molecule: C/C=C/C=C/CO
Test System: Cytochrome P450 3A4 (Homo sapiens)
Discrete Label: y
//
Molecule: Nc1cc(C(=O)O)c(O)c(S(=O)(=O)O)c1
Test System: Cytochrome P450 3A4 (Homo sapiens)
Discrete Label: n
//
Molecule: Cc1ccc(N=Nc2c(O)c(C(=O)O)cc3ccccc23)c(S(=O)(=O)O)c1
Test System: Cytochrome P450 3A4 (Homo sapiens)
Discrete Label: n
//
Molecule: Brc1c2ccccc2cc2ccccc12
Test System: Cytochrome P450 3A4 (Homo sapiens)
Discrete Label: y
//
Molecule: N=c1ccn2c(n1)O[C@H]1[C@H](O)[C@@H](CO)O[C@H]12
Test System: Cytochrome P450 3A4 (Homo sapiens)
Discrete Label: n
//
Molecule: CCc1cc(C2=C(C(=O)O)N(c3ccccc3C(F)(F)F)S(=O)(=O)c3ccccc32)cc2c1OCO2
Test System: Cytochrome P450 3A4 (Homo sapiens)
Discrete Label: y
//
Molecule: CCn1cc(C(=O)O)c(=O)c2cnc(N3CCNCC3)nc21
Test System: Cytochrome P450 3A4 (Homo sapiens)
Discrete Label: n
//
Molecule: C[N+]1(CC2COC(c3ccccc3)(C3CCCCC3)O2)CCCCC1 (centres undefined)
Test System: Cytochrome P450 3A4 (Homo sapiens)
Discrete Label: y
//
Molecule: C=CCOc1ccccc1OCC(O)CNC(C)C (centres undefined)
Test System: Cytochrome P450 3A4 (Homo sapiens)
Discrete Label: n
//
Molecule: CCOC(=O)c1cccnc1
Test System: Cytochrome P450 3A4 (Homo sapiens)
Discrete Label: n
//
Molecule: CC(C)(C)Cl
Test System: Cytochrome P450 3A4 (Homo sapiens)
Discrete Label: n
//
Molecule: CCNc1cc(O)ccc1C
Test System: Cytochrome P450 3A4 (Homo sapiens)
Discrete Label: y
//
Molecule: Nc1cccc(S(=O)(=O)c2cccc(N)c2)c1
Test System: Cytochrome P450 3A4 (Homo sapiens)
Discrete Label: y
//
Molecule: CN(C)CCN(Cc1ccccc1)c1ccccn1
Test System: Cytochrome P450 3A4 (Homo sapiens)
Discrete Label: n
//
Molecule: Cn1c(=O)cc(Oc2ccc(F)cc2F)c2cnc(NCC(C)(C)O)nc21
Test System: Cytochrome P450 3A4 (Homo sapiens)
Discrete Label: n
//
Molecule: CCCCOC(=O)CCCCCCCC(=O)OCCCC
Test System: Cytochrome P450 3A4 (Homo sapiens)
Discrete Label: n

// data source = PubChem BioAssay (Tox21)
